Measured values drawn from patent US20230382979A1 for this set.

biological target: Receptor-binding domain (RBD) of the SARS-CoV-2 spike protein, WA01/2020 strain (SARS-CoV-2, WA01/2020 strain, UniProt P0DTC2 319-541); assay: SPR (Biacore 8K), antigen immobilized, antibody injected
property measured: Kd (nM)
Write the number in nM without appending the unit.

binder="antibody 3086 (antibody, V domains shown) VH: QVQLQESGPGLVKPSETLSLTCTVSGGSISGHYWSWIRQPPGKGLEWIGYIYYSGSTNYNPSLKSRVTISVDTSVNQFSLKLSSVTAADTAVYYCARQEARDAVGNYFFDSWGQGTLVTVSS VL: QSALTQPASVSGSPGQSITISCSGTSSDIGSYDLVSWYQQHPGKAPKLLIYDVTKRPSGVSHRFSGSKSGNTASLTISGLQGEDEADYYCCSYVHFSTWVFGGGTKLTVL" property_measured=Kd reported_measurement=0.242
binder="antibody 1439 (antibody, V domains shown) VH: QVQLQESGPGLVKPSETLSLTCTVSGDSISTYYWSWIRQPPGKGLEWIGYIHYSGSTNYNPSLKSRVAVSVDTSKNQFSLKLSSVTAADTAVYYCARGGGVFGVVINFDYWGQGILVTVSS VL: NFMLTQPYSVSESPGKTVTISCTRSSGSIASNYVQWYQQRPGSAPTTVIYEDNQRPSGVPDRFSGSIDSSSNSASLTISGLKTEDEADYYCQSRDSSNPVVFGGGTKLTVL" property_measured=Kd reported_measurement=0.0176

Now let's try a different one.
Given the entry antibody 1227 (antibody, V domains shown) VH: QMQLVQSGAEVKKTGSSVKVSCEASGYTFTNRYLHWVRQAPGQALEWMGWITPFQGNTNYAQKFQDRVTITRDMSMNTVYMELSSLRSEDTAKYYCASGGQYGAGSYYLEDWGQGTLVTVSS VL: EIVMTQSPATLSVSPGERATLSCRASQSVRSNLAWYRQKPGQAPRLLIYGASTRATGVPARFSGSGSGTEFTLTISSLQSEDFAVYYCQQYINWPPLTFGGGTRVEIK , report its measured Kd. 2.74
